Tested on: TK-10 renal
Assay: NCI tumour cell line growth inhibition, 48 h
MEASURE: TGI

>>> reported_value("Cc1cc2c(cc1Cl)Sc1nnc(C)n1S2(=O)=O")
"56.9 µM"
>>> reported_value("CCCCCC(/C=N/NC(N)=S)C(O)(C(F)(F)F)C(F)(F)F (stereo not given)")
"> 10 µM"
>>> reported_value("Cc1cc2c(C(N)=O)cccc2n1-c1nc2c(c(NCc3ccccc3)n1)CCCN2")
"0.809 µM"
>>> reported_value("Cc1ccc(C(=O)N/N=C/c2cccc(Oc3ccccc3)c2)cn1")
"> 100 µM"
>>> reported_value("c1cncc(C(Nc2cccc3cccnc23)Nc2cccc3cccnc23)c1")
"> 100 µM"
>>> reported_value("Fc1ccc(-c2nnc3sc(-c4cccc(Cl)c4)nn23)cc1Cl")
"> 100 µM"
>>> reported_value("C=C(CN1CCN(c2ccccc2F)CC1)c1ccc(C(=O)Nc2ccccc2N)cc1")
"59.8 µM"
>>> reported_value("CCCCN(CCCC)c1ccc(N=Nc2ccc(S(=O)(=O)O)cc2)cc1")
"> 100 µM"
>>> reported_value("CCN(CC)C(=S)N/N=C(\\C)c1ccccc1O")
"> 100 µM"
>>> reported_value("O=C(O)c1cc2c(cc1S(=O)(=O)O)C1C(C3C2C2(Cl)C(Cl)=C(Cl)C3(Cl)C2(Cl)Cl)C2(Cl)C(Cl)=C(Cl)C1(Cl)C2(Cl)Cl (stereo not given)")
"> 100 µM"
